Parameter: Ki. Scope: all listed entries.
Biological target: human CB2 receptors (Homo sapiens, UniProt P34972)
Construct: expressed in transfected cells; host or cells: HEK293
Sequence (P34972 whole entry): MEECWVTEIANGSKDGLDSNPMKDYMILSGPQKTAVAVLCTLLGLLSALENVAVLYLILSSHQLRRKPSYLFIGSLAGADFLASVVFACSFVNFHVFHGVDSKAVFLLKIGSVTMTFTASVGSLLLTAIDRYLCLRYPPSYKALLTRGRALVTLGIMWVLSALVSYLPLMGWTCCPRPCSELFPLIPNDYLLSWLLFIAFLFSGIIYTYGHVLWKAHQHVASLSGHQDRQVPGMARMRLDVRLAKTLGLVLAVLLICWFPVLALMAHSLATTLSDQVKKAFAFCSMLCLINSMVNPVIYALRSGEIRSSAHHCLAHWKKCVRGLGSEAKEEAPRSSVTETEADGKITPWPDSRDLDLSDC
Assay: human CB2 radioligand binding assay ([3H]CP-55,940 competition)
Kindly report the value followed by its unit.

Solved entries (count: 5):
molecule=COc1ccc(Cl)cc1C(=O)/N=c1\sn(C(C)(C)C)cc1Cc1cscn1 observed="43 nM"
molecule=COc1ccc(Cl)cc1C(=O)/N=c1\sn(C(C)(C)C)cc1CC1OCCO1 observed="67 nM"
molecule="CCCC1CCc2c(/c(=N/C(=O)c3cc(Cl)ccc3OC)sn2C(C)(C)C)C1 (centres unmarked)" observed="0.9 nM"
molecule=COc1ccc(C(F)(F)F)cc1C(=O)/N=c1\sn(C(C)(C)C)cc1CCCC#N observed="18 nM"
molecule=CCCCc1cn(C(C)(C)C)s/c1=N\C(=O)[C@H]1CC[C@@](C)(C2=NCCO2)C1(C)C observed="45 nM"

[in] I am curious: what Ki value has been reported for CCCCc1cn(C(C)(C)C)s/c1=N\C(=O)[C@@]1(C)CC[C@@H](C(=O)N(C)C)C1(C)C ?
[out] 92 nM

[in] I am curious: what Ki value has been reported for CCCCc1cn(C(C)(C)C)s/c1=N\C(=O)[C@H]1CC[C@@](C)(C(N)=O)C1(C)C ?
[out] 9 nM

[in] I am curious: what Ki value has been reported for CCCCc1cn(C(C)(C)C)s/c1=N\C(=O)[C@H]1CC[C@@](C)(C(=O)O)C1(C)C ?
[out] 160 nM

---

Molecular target: rat CB2 (Rattus norvegicus)
Experiment: rat CB2 radioligand binding assay ([3H]CP-55,940 competition)
Design: expressed in transfected cells; host or cells: HEK293
pKi: −log10 of the molar value.
Response key: T means pKi >= 8; F means pKi < 8.

Answered cases to consult:
compound=COc1ccc(Cl)cc1C(=O)/N=c1\sn(C(C)(C)C)cc1CCC(C)(C)F qualitative_label=T
compound=CCCCc1cn(C(C)(C)C)s/c1=N\C(=O)[C@H]1CC[C@@](C)(C2=NCCO2)C1(C)C qualitative_label=F
compound=CCCCc1cn(C(C)(C)C)s/c1=N\C(=O)[C@]1(C)CC[C@H](C(=O)N(C)OC)C1(C)C qualitative_label=F

[in] Check if pKi >= 8 (inclusive). Item: COc1ccc(Cl)cc1C(=O)/N=c1\sn(C(C)(C)C)cc1CC(C)C
[out] T

[in] Check if pKi >= 8 (inclusive). Item: COc1ccc(Cl)cc1C(=O)/N=c1\sn(C(C)(C)C)cc1CN=[N+]=[N-]
[out] F

[in] Check if pKi >= 8 (inclusive). Item: COCCc1cn(C(C)(C)C)s/c1=N\C(=O)c1cc(Cl)ccc1OC
[out] F

[in] Check if pKi >= 8 (inclusive). Item: CCCCc1cn(C(C)(C)C)s/c1=N\C(=O)C1(c2ccccc2)CCCCC1
[out] T

[in] Check if pKi >= 8 (inclusive). Item: CCCCc1cn(C(C)(C)C)s/c1=N\C(=O)[C@]1(C)CC[C@H](C(=O)N(C)C)C1(C)C
[out] F

---

Parameter: pKi. Scope: all listed entries.
Target: human CB2 receptors (Homo sapiens)
Construct: expressed in transfected cells; host or cells: HEK293
Assay: human CB2 radioligand binding assay ([3H]CP-55,940 competition)
Details: HEK293 membranes, 0.5 nM [3H]CP-55,940; read-out: human CB2 (Ki)
Lab note — pKi values are minus log10 of concentrations in M.

Solved entries (count: 8):
compound="CCCCc1cn(C(C)(C)C)s/c1=N\\C(=O)c1cc(C(F)(F)F)ccc1OCc1cnccn1 [Example 198]" observed=6.60
compound="CCCCc1cn(C2CCC2)s/c1=N\\C(=O)c1cc(Cl)ccc1OC [Example 3]" observed=6.39
compound="COc1ccc(Cl)cc1C(=O)/N=c1\\sn(C(C)(C)C)c2c1CC1(CC2)OCCO1 [Example 10]" observed=6.72
compound="CCCCc1cn(C(C)(C)C)s/c1=N\\C(=O)[C@]1(C)CC[C@H](C(=O)N2CC(F)(F)C2)C1(C)C [Example 185]" observed=6.95
compound="CCCCc1cn(C(C)(C)C)s/c1=N\\C(=O)[C@]1(C)CC[C@H](NC(=O)OCC)C1(C)C [Example 216]" observed=6.80
compound="CCCCc1cn(C(C)(C)C)s/c1=N\\C(=O)C12CCC(C(=O)OC)(CC1)CC2 [Example 108]" observed=6.74
compound="CCCCc1cn(C(C)(C)C)s/c1=N\\C(=O)c1cc(CF)ccc1OC [Example 66]" observed=6.99
compound="COc1ccc(Cl)cc1C(=O)/N=c1\\sn(C(C)(C)C)cc1COCCF [Example 90]" observed=6.55

[in] I am curious: what pKi value has been reported for CC(C)Cc1cn(C(C)(C)C)s/c1=N\C(=O)c1cc(C(F)(F)F)ccc1OC[C@@H]1CCCN1C [Example 197] ?
[out] 6.59

[in] I am curious: what pKi value has been reported for CCCCc1cn(C(C)(C)C)s/c1=N\C(=O)[C@]1(C)CC[C@H](C(=O)NC2CC2)C1(C)C [Example 208] ?
[out] 6.70

[in] I am curious: what pKi value has been reported for CCCCc1cn(C(C)(C)C)s/c1=N\C(=O)[C@]1(C)CC[C@H](C(=O)NCc2ccccn2)C1(C)C [Example 234] ?
[out] 6.49

[in] I am curious: what pKi value has been reported for COc1ccc(Cl)cc1C(=O)/N=c1\sn(C(C)(C)C)c(C)c1NC(=O)OC(C)(C)C [Example 162] ?
[out] 6.92

[in] I am curious: what pKi value has been reported for CCCCc1cn(C(C)(C)C)s/c1=N\C(=O)[C@]1(C)CC[C@H](C(=O)NN2CCCC2)C1(C)C [Example 249] ?
[out] 6.96

---

Biological target: rat CB2 (Rattus norvegicus, UniProt Q9QZN9)
Sequence (Q9QZN9 whole entry): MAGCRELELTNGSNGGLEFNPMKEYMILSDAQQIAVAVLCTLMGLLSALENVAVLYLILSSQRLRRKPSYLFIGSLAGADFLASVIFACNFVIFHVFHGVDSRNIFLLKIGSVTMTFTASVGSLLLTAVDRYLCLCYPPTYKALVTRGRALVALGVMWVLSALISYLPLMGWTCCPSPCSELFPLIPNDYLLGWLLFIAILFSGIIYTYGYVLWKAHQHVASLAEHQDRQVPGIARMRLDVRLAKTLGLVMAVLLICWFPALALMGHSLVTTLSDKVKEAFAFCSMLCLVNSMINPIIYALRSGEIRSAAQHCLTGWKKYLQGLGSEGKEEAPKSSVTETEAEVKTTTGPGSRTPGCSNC
Assay: rat CB2 cyclase functional assay (HitHunter cAMP, HEK cells)
Conditions: forskolin 18 μM
Parameter: pEC50. Scope: all listed entries.
Lab note — pEC50 values are minus log10 of concentrations in M.

compound=C=CCc1cn(C(C)(C)C)s/c1=N\C(=O)c1cc(Cl)ccc1OC observed=8.62
compound=CCCCc1cn(C(C)(C)C)s/c1=N\C(=O)[C@@]1(C)CC[C@@H](C(=O)N(C)C)C1(C)C observed=8.24
compound="COc1ccc(Cl)cc1C(=O)/N=c1\\sn(C(C)(C)C)cc1CC1CC(C)=NO1 (stereo not drawn)" observed=8.57
compound=COc1ccc(Cl)cc1C(=O)/N=c1\sn(C(C)(C)C)cc1COC(C)C observed=10.27
compound=CCCCc1cn(C(C)(C)C)s/c1=N\C(=NC#N)c1cc(Cl)ccc1OC observed=9.92

Consider the record given below.
[in] I am curious: what pEC50 value has been reported for CCCCc1cn(C(C)(C)C)s/c1=N\C(=O)c1cc(C(F)F)ccc1OC ?
[out] 10.28

---

Target: rat CB2 (Rattus norvegicus, UniProt Q9QZN9)
Assay: rat CB2 radioligand binding assay ([3H]CP-55,940 competition)
Parameters: expressed in transfected cells; host or cells: HEK293
Parameter: pKi. Scope: all listed entries.
Lab note — pKi values are minus log10 of concentrations in M.

[in] Kindly state the measured pKi obtained for COc1ccc(Cl)cc1C(=O)/N=c1\sn(C(C)(C)C)cc1CCC(C)O (stereo not shown) [Example 18] with rat CB2 (Rattus norvegicus, UniProt Q9QZN9).
[out] 8.37

---

Molecular target: human CB2 receptors (Homo sapiens, UniProt P34972)
Construct: expressed in transfected cells; host or cells: HEK293
Assay: human CB2 radioligand binding assay ([3H]CP-55,940 competition)
Parameter: pKi. Scope: all listed entries.
Lab note — pKi values are minus log10 of concentrations in M.

Solved entries (count: 2):
smiles_data=CCCCc1cn(C(C)(C)C)s/c1=N\C(=O)C1(c2ccc(F)cc2Cl)CCCCC1 endpoint_name=pKi observed=8.12
smiles_data=CCCCc1cn(C(C)(C)C)s/c1=N\C(=O)[C@]1(C)CC[C@H](C2=NCCO2)C1(C)C endpoint_name=pKi observed=9.15

[in] I am curious: what pKi value has been reported for COc1ccc(C(F)(F)F)cc1C(=O)/N=c1\sn(C(C)(C)C)cc1CCCC(C)=O ?
[out] 7.62

[in] I am curious: what pKi value has been reported for CCCCc1cn(C(C)(C)C)s/c1=N\C(=O)[C@]1(C)CC[C@H](NC(N)=O)C1(C)C ?
[out] 7.49

[in] I am curious: what pKi value has been reported for COc1ccc(Cl)cc1C(=O)/N=c1\sn(C(C)(C)C)cc1CCCCF ?
[out] 8.12

---

Target: human CB2 receptors (Homo sapiens)
Construct: expressed in transfected cells; host or cells: HEK293
Experiment: human CB2 radioligand binding assay ([3H]CP-55,940 competition)
endpoint.name: Ki (nM)
Your answer should be a plain number; it is taken to be in nM.

molecule="CCCCc1cn(C(C)(C)C)s/c1=N\\C(=O)[C@]1(C)CC[C@H](C(=O)NC[C@@H]2CCCO2)C1(C)C [Example 226]" observed=250
molecule="COc1ccc(Cl)cc1C(=O)/N=c1\\sn(C(C)(C)C)cc1COCC(F)(F)F [Example 85]" observed=17
molecule="COc1ccc(Cl)cc1C(=O)/N=c1\\sn(C(C)(C)C)cc1CC1CCC1 [Example 38]" observed=2.5
molecule="CC(C)Cc1cn(C(C)(C)C)s/c1=N\\C(=O)c1cc(Cl)ccc1OCCF [Example 144]" observed=8.8
molecule="CCCCc1cn(C(C)(C)C)s/c1=N\\C(=O)C1(c2ccccc2)CCCCC1 [Example 94]" observed=4.8
molecule="COc1ccc(Cl)cc1C(=O)/N=c1\\sn(C(C)(C)C)cc1CCCC(C)(C)O [Example 80]" observed=74
molecule="CCCCc1cn(C(C)(C)C)s/c1=N\\C(=O)C1(C)CCC(C(=O)O)C1(C)C (centres unmarked) [Example 96]" observed=20
molecule="CCCCc1cn(C(C)(C)C)s/c1=N\\C(=O)c1cc(/C(C)=N\\O)ccc1OC [Example 68]" observed=59
molecule="CCCCc1cn(C(C)(C)CF)s/c1=N\\C(=O)c1cc(Cl)ccc1OC [Example 154]" observed=5.7
molecule="CCCCc1cn(C(C)(C)C)s/c1=N\\C(=NC#N)c1cc(Cl)ccc1OC [Example 110]" observed=3

Consider the record given below.
[in] I am curious: what Ki value has been reported for CCCCc1cn(C(C)(C)C)s/c1=N\C(=O)[C@H]1CC[C@@](C)(C(=O)OC)C1(C)C [Example 170] ?
[out] 1.4
